The reported measurements were obtained from patent US20170334899A1.

The listing below reports pIC50 for compounds tested on catalytic domain of human Bub1 (amino acids 704-1085) (Homo sapiens, UniProt O43683).
Sequence (O43683 704-1085): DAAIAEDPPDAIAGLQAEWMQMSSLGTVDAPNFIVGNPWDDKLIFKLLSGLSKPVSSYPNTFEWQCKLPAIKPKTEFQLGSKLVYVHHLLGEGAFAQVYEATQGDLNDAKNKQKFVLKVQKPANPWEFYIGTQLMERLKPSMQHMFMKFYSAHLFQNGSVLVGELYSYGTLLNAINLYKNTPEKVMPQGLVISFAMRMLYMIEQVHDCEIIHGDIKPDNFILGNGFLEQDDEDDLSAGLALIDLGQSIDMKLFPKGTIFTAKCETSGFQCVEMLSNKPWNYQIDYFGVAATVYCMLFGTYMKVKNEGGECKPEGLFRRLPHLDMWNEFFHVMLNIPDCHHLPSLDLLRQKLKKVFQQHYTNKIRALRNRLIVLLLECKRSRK
pIC50: −log10 of the molar value.

IN: # value lookup — system catalytic domain of human Bub1 (amino acids 704-1085) (Homo sapiens, UniProt O43683), readout pIC50, item Cc1nsc(Nc2cnc(C(F)(F)F)cn2)c1C(=O)Nc1ccc(OCC2CCCN(C(=O)OC(C)(C)C)C2)nc1 (stereo not drawn)
OUT: < 4.70

IN: Also check `Cc1nsc(Nc2cnc3ccccc3n2)c1C(=O)Nc1ccc(NCCN(C)C(=O)OC(C)(C)C)nc1`
OUT: < 4.70

IN: Also check `Cc1nsc(Nc2cnc(C(F)(F)F)cn2)c1C(=O)Nc1ccc(OCC2CCN(CC(F)F)CC2)nc1`
OUT: ≤ 4.70

IN: Also check `Cc1nsc(Nc2cnc(C(F)(F)F)cn2)c1C(=O)Nc1ccc(F)c(OC2CCN(CCF)CC2)c1`
OUT: < 4.70

IN: Also check `Cc1nsc(Nc2ccc(C#N)cn2)c1C(=O)Nc1cccc(NC(=O)OC(C)(C)C)c1`
OUT: < 4.70

* * *

# systemUnderTest: human kinase Mps-1 (Homo sapiens, UniProt P33981)
# Construct: N-terminally GST-tagged human full length recombinant Mps-1 kinase; GST (N)
# Sequence (P33981 whole entry): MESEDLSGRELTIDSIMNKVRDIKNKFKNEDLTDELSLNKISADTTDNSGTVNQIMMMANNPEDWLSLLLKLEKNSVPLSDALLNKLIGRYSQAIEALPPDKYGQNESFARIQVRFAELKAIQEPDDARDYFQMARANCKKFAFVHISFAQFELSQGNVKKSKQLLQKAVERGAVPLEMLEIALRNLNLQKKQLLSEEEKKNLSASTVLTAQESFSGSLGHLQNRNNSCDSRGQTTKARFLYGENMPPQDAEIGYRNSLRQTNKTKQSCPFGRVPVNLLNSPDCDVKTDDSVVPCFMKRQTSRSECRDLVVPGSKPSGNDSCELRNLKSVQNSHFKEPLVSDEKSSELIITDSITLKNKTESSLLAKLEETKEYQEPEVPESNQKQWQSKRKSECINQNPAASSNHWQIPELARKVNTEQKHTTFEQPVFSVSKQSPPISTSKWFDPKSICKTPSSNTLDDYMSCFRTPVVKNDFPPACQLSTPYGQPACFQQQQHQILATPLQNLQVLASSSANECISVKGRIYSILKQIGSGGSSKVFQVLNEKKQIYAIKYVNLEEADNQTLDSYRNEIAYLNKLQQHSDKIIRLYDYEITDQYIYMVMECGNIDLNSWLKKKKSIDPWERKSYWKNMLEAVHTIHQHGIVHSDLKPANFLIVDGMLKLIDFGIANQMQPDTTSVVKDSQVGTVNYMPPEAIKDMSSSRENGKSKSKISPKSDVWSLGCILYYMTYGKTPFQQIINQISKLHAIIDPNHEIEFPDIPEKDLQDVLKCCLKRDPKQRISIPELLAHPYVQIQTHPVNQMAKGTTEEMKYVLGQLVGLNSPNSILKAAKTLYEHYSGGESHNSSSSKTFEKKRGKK
# experimentalDetails: Mps-1 kinase assay (TR-FRET)
# experimentalParameters: Mps-1 TR-FRET kinase assay; avg; read-out: Mps1 avg (IC50 [mol/l])
Here, each record is paired with measured IC50 data.

Answered examples (5):
Cc1nsc(Nc2cnc(C(F)(F)F)cn2)c1C(=O)Nc1ccc(OC2CCN(CCF)CC2)nc1	≥ 20 µM
Cc1nsc(Nc2cnc(C(F)(F)F)cn2)c1C(=O)Nc1ccc(N2CCN(CC(F)F)CC2)nc1	> 20 µM
Cc1nsc(Nc2cnc(C(F)(F)F)cn2)c1C(=O)Nc1ccc(OCC2CCCN(CCC(F)(F)F)C2)nc1 (stereo not shown)	≥ 20 µM
COCCOc1ccc(NC(=O)c2c(C)nsc2Nc2nc3c(C(F)(F)F)cccc3s2)cc1F	≥ 20 µM
Cc1nsc(Nc2ccc(C#N)cn2)c1C(=O)Nc1ccc(OC2CCCN(CC(F)(F)F)C2)nc1 (stereo not shown)	≥ 20 µM

Below: the item to evaluate.
IN: Request the reported IC50 associated with `Cc1nsc(Nc2cnc(C(F)(F)F)cn2)c1C(=O)Nc1ccc(OCCCNCC(F)(F)F)nc1`
OUT: > 20 µM

* * *

Here, each record is paired with measured pIC50 data.
# systemUnderTest: human kinase Mps-1 (Homo sapiens, UniProt P33981)
# Construct: N-terminally GST-tagged human full length recombinant Mps-1 kinase; GST (N)
# experimentalDetails: Mps-1 kinase assay (TR-FRET)
# experimentalParameters: Mps-1 TR-FRET kinase assay; avg; read-out: Mps1 avg (IC50 [mol/l])
pIC50: −log10 of the molar value.

Answered examples (10):
Cc1nsc(Nc2cnc(C(F)(F)F)cn2)c1C(=O)Nc1ccc(F)c(OCC2CCN(CCF)CC2)c1	≤ 4.70
Cc1nsc(Nc2cnc(C(F)(F)F)cn2)c1C(=O)Nc1ccc(C(=O)N2CCN(CC(F)F)CC2)cc1	< 4.70
Cc1nsc(Nc2cnc3ccccc3n2)c1C(=O)Nc1ccc(N2CCN(C(=O)OC(C)(C)C)CC2)nc1	< 4.70
Cc1nsc(Nc2cnc(C(F)(F)F)cn2)c1C(=O)Nc1ccc(F)c(C(N)=O)c1	< 4.70
Cc1nsc(Nc2cnc(C(F)(F)F)cn2)c1C(=O)Nc1ccc(O[C@H]2CCN(CC(F)(F)F)C[C@H]2F)nc1	< 4.70
Cc1nsc(Nc2cnc(C(F)(F)F)cn2)c1C(=O)Nc1ccc(F)c(OCC2CCN(CC(F)F)CC2)c1	≤ 4.70
COCCOc1ccc(NC(=O)c2c(C)nsc2Nc2nc3c(C(F)(F)F)cccc3s2)cn1	≤ 4.70
Cc1nsc(Nc2cncc(C(F)(F)F)n2)c1C(=O)Nc1ccc(OCCNC(=O)OC(C)(C)C)c(F)c1	< 4.70
Cc1nsc(Nc2cnc(C(F)(F)F)cn2)c1C(=O)Nc1ccc(OC2CCN(CCC(F)(F)F)CC2)nc1 [Example 426]	≤ 4.70
Cc1nsc(Nc2cnc(C(F)(F)F)cn2)c1C(=O)Nc1ccc(OCC2CCN(CC(F)F)C2)nc1 (stereo not drawn)	≤ 4.70

IN: Request the reported pIC50 associated with `Cc1nsc(Nc2cnc(C(F)(F)F)cn2)c1C(=O)Nc1ccc(OCCCN(C)CCC(F)(F)F)nc1`
OUT: ≤ 4.70

IN: Also check Cc1nsc(Nc2cnc(C(F)(F)F)cn2)c1C(=O)Nc1ccc(OC2CCN(CC(F)(F)F)C2)nc1 (stereo not drawn)
OUT: 4.92

IN: Also check `Cc1nsc(Nc2cnc3ccccc3n2)c1C(=O)Nc1ccc(NC(=O)C(C)(C)C)cc1`
OUT: < 4.70

IN: Also check `Cc1nsc(Nc2cncc(C(F)(F)F)n2)c1C(=O)Nc1ccc(C(=O)N2CCN(CCF)CC2)cc1`
OUT: < 4.70

IN: Also check Cc1nsc(Nc2cnc(C(F)(F)F)cn2)c1C(=O)Nc1ccc(F)c(OC2CCN(CC(F)F)C2)c1 (stereo not drawn)
OUT: ≤ 4.70

IN: Also check `Cc1nsc(Nc2cnc(C(F)(F)F)cn2)c1C(=O)Nc1ccc(C2CCN(CC(F)(F)F)CC2)nc1`
OUT: < 4.70

IN: Also check `Cc1nsc(Nc2cnc3ccccc3n2)c1C(=O)Nc1cccc(C(=O)NCC(=O)O)c1`
OUT: 5.05

IN: Also check `Cc1nsc(Nc2cnc(C(F)(F)F)cn2)c1C(=O)Nc1ccc(CCC2CCN(CC(F)F)CC2)nc1`
OUT: < 4.70

IN: Also check `Cc1nsc(Nc2cnc(C(F)(F)F)cn2)c1C(=O)Nc1ccc(C(=O)N2CCN(C)CC2)cc1`
OUT: < 4.70

IN: Also check Cc1nsc(Nc2cnc3ccccc3n2)c1C(=O)Nc1ccc(OC2CCCN(C(=O)OC(C)(C)C)C2)nc1 (stereo not drawn)
OUT: ≤ 4.70

IN: Also check `Cc1nsc(Nc2cnc3ccccc3n2)c1C(=O)Nc1cccc(C(=O)N2CCCC2)c1`
OUT: 4.92

IN: Also check `CCNS(=O)(=O)c1ccc(NC(=O)c2c(C)nsc2Nc2cnc3ccccc3n2)cc1`
OUT: ≤ 4.70

IN: Also check `CCCN1CC[C@H](Oc2ccc(NC(=O)c3c(C)nsc3Nc3cnc(C(F)(F)F)cn3)cn2)[C@H](F)C1`
OUT: < 4.70

* * *

# Test system: human cervical tumor cell line HeLa (ATCC CCL-2)
# experimentalDetails: SAC-Formation - Nocodazole-Induced Assay
# Format: cell-based
# experimentalParameters: Homo sapiens, HeLa, 24 h, HeLa cells, nocodazole 0.1 μg/ml together with test compound, decrease of mitotic cells (phospho-histone H3 Ser10)
pIC50: −log10 of the molar value.
Answer Criterion not met if pIC50 is under 7, and Criterion met if it is 7 or more.

Field: example entries. Status: answers known.
Cc1nsc(Nc2cnc(C(F)(F)F)cn2)c1C(=O)Nc1ccc(OC2CCN(CC(F)F)CC2)nc1	Criterion not met
CC(=O)N[C@H]1CCN(C(=O)c2cccc(NC(=O)c3c(C)nsc3Nc3cnc4ccccc4n3)c2)C1	Criterion not met
Cc1nsc(Nc2cnc3ccccc3n2)c1C(=O)Nc1cccc(NS(=O)(=O)C2CN(CC(F)(F)F)C2)c1	Criterion not met
Cc1nsc(Nc2cnc(C(F)(F)F)cn2)c1C(=O)Nc1ccc(O[C@@H]2CCN(CCC(F)(F)F)C[C@H]2F)nc1	Criterion met
Cc1nsc(Nc2cnc3ccccc3n2)c1C(=O)Nc1cccc(C(=O)N2CCNCC2)c1	Criterion not met
Cc1nsc(Nc2cnc(C(F)(F)F)cn2)c1C(=O)Nc1ccc(F)c(OCCCNCC(F)(F)F)c1	Criterion met
Cc1nsc(Nc2cnc(C(F)(F)F)cn2)c1C(=O)Nc1ccc(OCCCNCCC(F)(F)F)nc1	Criterion not met
COC(=O)CN(C)C(=O)c1cccc(NC(=O)c2c(C)nsc2Nc2cnc3ccccc3n2)c1	Criterion not met
Cc1nsc(Nc2cnc(C(F)(F)F)cn2)c1C(=O)Nc1ccc(OCCN(C)C(=O)OC(C)(C)C)nc1	Criterion met
Cc1nsc(Nc2cnc3ccccc3n2)c1C(=O)Nc1cccc(N)c1	Criterion not met

IN: hey, is pIC50 for this one >= 7? `Cc1nsc(Nc2cnc3ccccc3n2)c1C(=O)Nc1ccccc1S(C)(=O)=O`
OUT: Criterion not met

IN: Also check `Cc1nsc(Nc2cnc3ccccc3n2)c1C(=O)Nc1cccc(C(=O)N2CCCN(C)CC2)c1`
OUT: Criterion met

* * *

Here, each record is paired with measured pIC50 data.
# Test system: human cervical tumor cell line HeLa (ATCC CCL-2)
# experimentalDetails: SAC-Formation - Nocodazole-Induced Assay
# Assay type: cell-based
# experimentalParameters: Homo sapiens, HeLa, 24 h, HeLa cells, nocodazole 0.1 μg/ml together with test compound, decrease of mitotic cells (phospho-histone H3 Ser10)
FYI, pIC50 means -log10 of a concentration in mol per litre.

Cc1nsc(Nc2cnc(C(F)(F)F)cn2)c1C(=O)Nc1ccc(OC2CCNCC2)nc1 [Example 6]	4.85
Cc1nsc(Nc2cnc(C(F)(F)F)cn2)c1C(=O)Nc1ccc(OCC2CCCN(C(=O)OC(C)(C)C)C2)nc1 (stereo not drawn) [Example 228]	6.74
Cc1nsc(Nc2cnc3ccccc3n2)c1C(=O)Nc1cccc(NS(=O)(=O)C2CCN(CC(F)(F)F)C2)c1 (stereo not drawn) [Example 289]	5.72

IN: Request the reported pIC50 associated with Cc1nsc(Nc2cnc3ccccc3n2)c1C(=O)Nc1cccc(C(=O)N2CCCC2)c1 [Example 113]
OUT: 6.68

IN: Also check Cc1nsc(Nc2cnc(C(F)(F)F)cn2)c1C(=O)Nc1ccc(OC2CCN(C)CC2)nc1 [Example 220]
OUT: 5.96

IN: Also check Cc1nsc(Nc2cnc(C(F)(F)F)cn2)c1C(=O)Nc1ccc(F)c(OC2CCN(CC(F)(F)F)C2)c1 (stereo not drawn) [Example 315]
OUT: 8.37

IN: Also check Cc1nsc(Nc2cnc3ccccc3n2)c1C(=O)Nc1ccc(N2CCN(C(=O)OC(C)(C)C)CC2)nc1 [Example 248]
OUT: 6.14

IN: Also check Cc1nsc(Nc2cnc(C(F)(F)F)cn2)c1C(=O)Nc1ccc(OC2CCN(CC(F)F)C2)nc1 (stereo not drawn) [Example 296]
OUT: 6.74

IN: Also check Cc1nsc(Nc2cnc(C(F)(F)F)cn2)c1C(=O)Nc1ccc(OCCNC(=O)C(F)(F)F)nc1 [Example 425]
OUT: 6.14

IN: Also check Cc1nsc(Nc2cnc(C(F)(F)F)cn2)c1C(=O)Nc1ccc(N2CCN(CCC(F)(F)F)CC2)nc1 [Example 361]
OUT: 7.17

IN: Also check CCCCN1CC[C@H](Oc2ccc(NC(=O)c3c(C)nsc3Nc3cnc(C(F)(F)F)cn3)cn2)[C@H](F)C1 [Example 148]
OUT: 6.68

IN: Also check Cc1nsc(Nc2cncc(C(F)(F)F)n2)c1C(=O)Nc1ccc(OC2CCN(C)CC2)nc1 [Example 219]
OUT: 6.04
